So I've got a bunch of compounds here, and I need their pIC50 values.
# Experimental system: Recombinant human Farnesyl Pyrophosphate synthase (FPPS) (Homo sapiens, UniProt P14324)
# Construct: made in house
# Sequence (P14324 67-419): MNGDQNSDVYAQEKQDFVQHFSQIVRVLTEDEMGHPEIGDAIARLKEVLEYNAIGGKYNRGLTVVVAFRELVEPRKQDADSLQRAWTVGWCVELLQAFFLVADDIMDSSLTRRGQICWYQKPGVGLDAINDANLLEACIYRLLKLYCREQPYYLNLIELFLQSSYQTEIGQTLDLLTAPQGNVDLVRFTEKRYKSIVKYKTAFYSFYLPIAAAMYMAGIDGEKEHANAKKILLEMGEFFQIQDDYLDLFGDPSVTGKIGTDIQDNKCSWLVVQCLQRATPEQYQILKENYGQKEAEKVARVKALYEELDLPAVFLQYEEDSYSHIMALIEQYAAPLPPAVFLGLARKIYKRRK
# Assay info: FPPS enzyme assay, scintillation proximity (FlashPlate)
# Assay type: biochemical
# Experimental parameters: FlashPlate SPA; GPP 150 nM, [3H]-IPP 150 nM, FPPS 500 pM, 45 minutes at room temperature; highest concentration tested 100 μM; read-out: FPPS IC50
Answers are plain numbers, as −log10 of the molar value.

Answered cases to consult:
O=C(NCP(=O)(O)O)c1ccc2cccc(-c3cccc4ccccc34)c2n1 : 4.39
O=P(O)(O)Cc1ccc2cccc(-c3cccc4ccccc34)c2n1 : 5.10
O=C(OCc1ccccc1)c1ccc2cccc(-c3cccc4[nH]c(=O)ccc34)c2n1 : 4.71

Then this compound:
Incoming: For the compound shown here, `O=P(O)(O)CNc1ccc2cc(-c3cc[nH]c3)cc(-c3cccc4ccccc34)c2n1` , give the reported pIC50.
Outgoing: 4.67
